In this section, each of the compounds is paired with its reported EC95.
Test system: Alternaria tenuissima
Assay: Liquid culture assay on 24 well plates, solo ai (EC95/MIC)
Assay type: cell-based
Conditions: A. tenuissima; 24° C., 3-6 days
Write down the numeric answer in mg ai/l and omit the unit.

Reference set (3 entries):
{"columns": ["Compound", "Experimental endpoint", "Quantity unit", "Observed result"],
 "data": [
  ["N#Cc1c[nH]cc1-c1cccc2c1OC(F)(F)O2", "EC95", "mg ai/l", 1.3],
  ["CC1COC(Cn2cncn2)(c2ccc(Oc3ccc(Cl)cc3)cc2Cl)O1 (stereo not shown)", "EC95", "mg ai/l", 0.7],
  ["CCCC1COC(Cn2cncn2)(c2ccc(Cl)cc2Cl)O1 (stereo not shown)", "EC95", "mg ai/l", 10.1]
]}

Fill blank: measured EC95 of the compound CC(C1CC1)C(O)(Cn1cncn1)c1ccc(Cl)cc1 (stereo not shown) is ____. 10.2
